Tested on: Ramos cells
Protocol Summary: Cytotoxicity in Ramos cells
Type: cell-based
Study Conditions: read-out: Ramos Cell EC50
pEC50: −log10 of the molar value.
Property Measured: pEC50

>>> endpoint_result("O=C(/N=C(/Nc1cc(F)cc(Cl)c1)Nc1cc(C(F)(F)F)nn1CC(O)CO)c1cccc(Cl)c1 (single isomer, unassigned)")
"> 5.00"
